Values were extracted from patent US20200317791A1.

Record form. Attribute: kon. Fill in for each entry.
# target of assay: CW6W54.001
# test details: SPR Biacore 8K, captured mAb; Kinetic fit not valid
Hi! Could you send only the number? It should be in M⁻¹ s⁻¹, unit omitted.

Lab book: kon of CW6B130 (antibody, V domains shown, also called CW6B130.001; CW6M130 (DNA ID)) VH: QLQLQESGPGLVKPSETLSLTCTVSGASISSINYYWGWIRQPPGKGLEWIGSFYYSGNTYYNPSLKSRVTISVDTSKNYFSLKLNSVTAADTAVYYCAREYYDSSGYYPFEPWGQGTLVTVSS VL: SYVLTQPPSVSVAPGQTARITCGGDNIGSESVHWYQQKPGQAPVLVVYDDTDRPSGIPERFSGSKSGTTATLTISWVEAGDEADYYCQVWDSSSDHVVFGGGTKLTVL noted as 2.47e+07

Lab book: kon of CW6B229 (antibody, V domains shown, also called CW6B229.001; CW6M229 (DNA ID)) VH: QVQLQESGPGLVKPSETLSLTCTVSGNSIRSYYWSWIRQPAGKGLEWIGRIYISGNTNYNPSLKSRVTMSIDTSKNQFSLKLSSVTAADTAVFYCARLSGIDAFDIWGQGTMVTVSS VL: DIQMTQSPSSLSASVGDRVTITCQASQDISNYLNWYQQKPGKAPKLLIYDASNLETGVPSRFSGSGSGTDFTFTISSLQPEDFATYYCQQYDNLPITFGQGTRLEIK noted as 691000

Lab book: kon of CW6B230 (antibody, V domains shown, also called CW6B230.001; CW6M230 (DNA ID)) VH: QVQLQESGPGLVKPSETLSLTCTVSGNSISNYYWSWIRQPAGKGLEWIGRIYITGNTNYNPSLKSRVTMSLDTSKNQFSLKLSSVTAADTAVYYCARLSGIDAFDIWGQGTMVTVSS VL: DIQMTQSPSTLSASVGDRVTFTCQASQDITKYLNWYQQKPGKAPKLLIYDASNLETGVPSRFSGSGSGTDFTFTISSLQPEDFATYYCQQYDDLPITFGQGTRLEIK noted as 467000

Lab book: kon of CW6B233 (antibody, V domains shown, also called CW6B233.001; CW6M233 (DNA ID)) VH: QVQLQESGPGLVKPSETLSLTCTVSGNSIRSYYWSWIRQPAGKGLEWIGRIYISGNTNYNPSLKSRVTMSIDTSKNQFSLKLSSVTAADTAVYYCARLSGIDAFDIWGQGTMVTVSS VL: DIQMTQSPSSLSASVGDRVTITCQASQDITNYLNWYQQKPGKAPKLLIYDASNLETGVPSRFSGSGSGTDFTFTISSLQPEDFATYYCQQYDNLPITFGQGTRLEIK noted as 607000
